The reported measurements were obtained from PubChem BioAssay (NCI).

- Tested on: MALME-3M melanoma
- test-name: NCI tumour cell line growth inhibition, 48 h; in the data active = GI50 below about 0.43 µM; inactive = the rest
Assign a class; possible classes are active, inactive

Input: Test call for this compound, please: `CN(C)Cc1ccc(NC(=O)c2cncc(C#Cc3cnc(N)c4ncccc34)c2)cc1C(F)(F)F`
Output: active

Input: Test call for this compound, please: `COc1ccc(CCN2CCCn3c2nc2ccccc2c3=O)cc1`
Output: active

Input: Test call for this compound, please: `O=C(CSSCC(=O)c1ccc(Cl)cc1)c1ccc(Cl)cc1`
Output: inactive

----------
- Tested on: UACC-62 melanoma
- test-name: NCI tumour cell line growth inhibition, 48 h
For each record, write down the corresponding TGI.
Use µM as the unit, but write only the number.

Input: Write down measured TGI (UACC-62 melanoma) for this compound. `COc1ccc(C2=C(c3ccc(OC)cc3)C(=O)OC2)cc1`
Output: 20.6

Input: Write down measured TGI (UACC-62 melanoma) for this compound. CC(=O)C1=C(C)N(c2ccccc2)C2(O)C3=C(C(=O)c4ccccc4C3=O)C(O)=CC12Cl (centres undefined)
Output: 73.9

----------
- Tested on: T-47D breast
- test-name: NCI tumour cell line growth inhibition, 48 h
observation-type: TGI

Input: Fill in TGI for record `CC(C)(C)OC(=O)NCCCCCCCCCn1c2c(c3ccccc3c1=O)C(=O)c1ccccc1-2`
Output: > 100 µM

Input: Fill in TGI for record `O=C1C=C(NCCc2ccc(O)c([N+](=O)[O-])c2)C(=O)c2[nH]cnc21`
Output: 40.7 µM

Input: Fill in TGI for record `CCN(CC)CCC(=O)/C=C/c1ccc(Cl)c(Cl)c1`
Output: 5.86 µM

Input: Fill in TGI for record `O=C(Cn1c2ccc(Br)cc2c2nc3ccccc3nc21)NCc1ccccc1`
Output: 18.6 µM

Input: Fill in TGI for record `Nc1nc(N)nc(CCCCc2nc(N)nc(N)n2)n1`
Output: > 100 µM

Input: Fill in TGI for record `CN[C@@H](C)C(=O)N[C@H](C(=O)N1CCC[C@H]1c1nc(C(=O)c2ccc(F)cc2)cs1)C1CCCCC1`
Output: 77.8 µM

Input: Fill in TGI for record `O=C(CCN1CCCC1)Nc1ccc2c(Nc3ccc(F)cc3)c3ccccc3nc2c1`
Output: 3.79 µM

Input: Fill in TGI for record `CCCC(=O)Oc1ccc(/C(=C(\C)c2ccc(Cl)cc2)c2ccc(OCCN(CC)CC)cc2)cc1`
Output: 4.88 µM

Input: Fill in TGI for record `C(=N\NC1=NCCCCN1)/c1ccc2ccccc2c1`
Output: 62 µM

Input: Fill in TGI for record `COc1cc2c(cc1OC)C(CCN)=NCC2`
Output: 31.1 µM

Input: Fill in TGI for record `C[C@H]1C[C@@H](n2c(Nc3ccc(OC(F)(F)F)cc3)nc3cc(CCC(=O)O)ccc32)CC(C)(C)C1`
Output: 44.5 µM

Input: Fill in TGI for record CC(O)C(CO)NC(=O)C1CSSCC(NC(=O)C(N)Cc2ccccc2)C(=O)NC(Cc2ccccc2)C(=O)NC(Cc2c[nH]c3ccccc23)C(=O)NC(CCCCN)C(=O)NC(C(C)O)C(=O)N1 (stereo not drawn)
Output: > 100 µM

Input: Fill in TGI for record N#CC1=C(N)NC(=O)C(C#N)C12Nc1ccccc1S2 (stereo not drawn)
Output: > 100 µM

Input: Fill in TGI for record Nc1cc(C2CCCc3c2[nH]c2ccccc32)ccc1O (stereo not drawn)
Output: > 100 µM

Input: Fill in TGI for record `COc1cc(C[C@H]2COC(=O)[C@]2(O)Cc2ccc(OCc3ccccc3)c(OC)c2)ccc1OCc1ccccc1`
Output: > 100 µM

Input: Fill in TGI for record CCC1c2[nH]c3ccccc3c2C[C@H]2C(=O)NC(C)C(=O)N12 (stereo partly drawn)
Output: > 100 µM

Input: Fill in TGI for record Cc1ccc([N+](=O)[O-])cc1S(=O)(=O)Nc1ccc(C2=NN(S(=O)(=O)c3cc([N+](=O)[O-])ccc3C)C(c3cccs3)C2)cc1 (stereo not drawn)
Output: > 100 µM

Input: Fill in TGI for record CC(C)(C)OC(=O)NC(CSCc1ccc(C(=O)c2ccccc2)cc1)C(=O)N1CCN(CCCCN2c3ccccc3Sc3cc(N=[N+]=[N-])ccc32)CC1 (stereo not drawn)
Output: > 100 µM

Input: Fill in TGI for record CCN1C(=O)N(CC)C2C1NN=c1s/c(=C3\C(=O)Nc4ccccc43)c(=O)n12 (stereo not drawn)
Output: > 100 µM

Input: Fill in TGI for record `Cc1cc(C)c2c(=N)c3ccccc3n(CCCCCCCCn3c4ccccc4c(=N)c4c(C)cc(C)nc43)c2n1`
Output: 3.23 µM

Input: Fill in TGI for record COP(=O)(OC)C(N)Cc1c[nH]c2ccccc12 (stereo not drawn)
Output: > 100 µM

Input: Fill in TGI for record `O=C(O)CCCN1C(=O)/C(=C/C(Cl)=C/c2ccccc2)SC1=S`
Output: 5.38 µM

Input: Fill in TGI for record `COc1c(C(=O)/C(=N/Nc2ccc(C(=O)O)cc2)C(C)=O)c(O)cc2occc12`
Output: > 100 µM

----------
For each record, write down the corresponding TGI.
- System: HT29 colon
- test-name: NCI tumour cell line growth inhibition, 48 h

Input: Fill in TGI for record O=C(CC(C(=O)c1ccsc1)c1cccs1)c1ccccc1 (configuration not stated)
Output: > 100 µM

Input: Fill in TGI for record `C/C(Cc1ccc2c(c1)OCO2)=N\N=c1\sc2ccccc2n1C`
Output: > 100 µM

Input: Fill in TGI for record `O=C1C=C(NCCc2ccc(O)c([N+](=O)[O-])c2)C(=O)c2[nH]cnc21`
Output: > 100 µM

Input: Fill in TGI for record `Cc1nc2ccccc2c(=O)n1/N=C(\N=Nc1ccc(Cl)cc1)c1cccc(-c2ccco2)c1`
Output: > 100 µM

Input: Fill in TGI for record `COc1ccc(CCN2CCCn3c2nc2ccccc2c3=O)cc1`
Output: > 28.4 µM

Input: Fill in TGI for record `Cc1cc(C)c2c(=N)c3ccccc3n(CCCCCCCCn3c4ccccc4c(=N)c4c(C)cc(C)nc43)c2n1`
Output: 1.16 µM

Input: Fill in TGI for record `CNC(=O)[C@H](Cc1c[nH]c2ccccc12)NC(=O)[C@@H](CC(=O)NO)CC(C)C`
Output: > 25 µM

Input: Fill in TGI for record N=C1OC(CN2CCN(c3ccccc3)CC2)CN1C(=O)Nc1ccccc1 (configuration not stated)
Output: > 100 µM

Input: Fill in TGI for record `O=C(COc1cc(=O)oc2ccccc12)c1ccccc1`
Output: 45.7 µM

Input: Fill in TGI for record O=CNC(Cc1cnc[nH]1)C(=O)O (configuration not stated)
Output: > 100 µM

Input: Fill in TGI for record `Nc1cc(CO)cc(Nc2c3ccccc3nc3ccccc23)c1`
Output: 28.8 µM

Input: Fill in TGI for record `COc1ccc(C2=C(c3ccc(OC)cc3)C(=O)OC2)cc1`
Output: > 100 µM

Input: Fill in TGI for record `O=C(O)CCCN1C(=O)/C(=C/C(Cl)=C/c2ccccc2)SC1=S`
Output: 10.6 µM

Input: Fill in TGI for record `N=c1oc2cc(O)ccc2cc1C(=O)Nc1ccccn1`
Output: > 100 µM

Input: Fill in TGI for record COP(=O)(OC)C(N)Cc1c[nH]c2ccccc12 (configuration not stated)
Output: > 100 µM

Input: Fill in TGI for record `O=S(=O)(F)Cc1ccccc1`
Output: > 100 µM

Input: Fill in TGI for record `O=c1cc(NNc2ccccc2)[nH]c(=O)[nH]1`
Output: 39 µM

----------
- System: IGROV1 ovarian
- test-name: NCI tumour cell line growth inhibition, 48 h
observation-type: GI50

Input: Fill in GI50 for record `COc1ccc(-c2cn(C)c3c2-n2cccc2C3=O)cc1O`
Output: 26.9 µM

Input: Fill in GI50 for record `COc1ccc(-c2nc(NC(=O)CS(=O)(=O)c3ccc(F)cc3)sc2C)cc1`
Output: 28.2 µM

Input: Fill in GI50 for record `O=C1/C(=C/c2ccc(F)cc2)COc2ccc(O)c(O)c21`
Output: 1.1 µM

Input: Fill in GI50 for record N#CC1=C(N)NC(=O)C(C#N)C12Nc1ccccc1S2 (centres undefined)
Output: 18 µM

----------
For each record, write down the corresponding TGI.
- Tested on: SK-MEL-5 melanoma
- test-name: NCI tumour cell line growth inhibition, 48 h
Where a SMILES comes first, the peptide text is derived from it. [ ]: non-standard residue; d: D form. Ava = NCCCCC(=O)O; Mpa = O=C(O)CCS

Input: Fill in TGI for record `O=S1(=O)OCCOS(=O)(=O)C1(F)Cc1ccccc1`
Output: > 100 µM

Input: Fill in TGI for record `O=C(NCCCN1CCN(CCCNC(=O)c2cccc3ccccc23)CC1)c1cccc2ccccc12`
Output: > 100 µM

Input: Fill in TGI for record CCOC(CBr)OC1C(=O)OCC1(C)C (centres undefined)
Output: > 100 µM

Input: Fill in TGI for record CC(NC(=O)CCS)C(=O)NC(C)C(=O)NC(Cc1c[nH]c2ccccc12)C(=O)NC(Cc1c[nH]cn1)C(=O)NC(CO)C(=O)NC(Cc1c[nH]c2ccccc12)C(=O)NCCCCC(=O)NC(C)C(=O)NC(CCC(N)=O)C(=O)NC(CCCCN)C(=O)NC(C)C(=O)NC(CCCNC(=N)N)C(=O)NC(CCCCN)C(N)=O (centres undefined) ([Mpa]AAWHSW[Ava]AQKARK-NH2; configuration not given here)
Output: > 100 µM
